Target: NAD-dependent protein deacetylase sirtuin-1 (Homo sapiens)
Sequence (Q96EB6 whole entry): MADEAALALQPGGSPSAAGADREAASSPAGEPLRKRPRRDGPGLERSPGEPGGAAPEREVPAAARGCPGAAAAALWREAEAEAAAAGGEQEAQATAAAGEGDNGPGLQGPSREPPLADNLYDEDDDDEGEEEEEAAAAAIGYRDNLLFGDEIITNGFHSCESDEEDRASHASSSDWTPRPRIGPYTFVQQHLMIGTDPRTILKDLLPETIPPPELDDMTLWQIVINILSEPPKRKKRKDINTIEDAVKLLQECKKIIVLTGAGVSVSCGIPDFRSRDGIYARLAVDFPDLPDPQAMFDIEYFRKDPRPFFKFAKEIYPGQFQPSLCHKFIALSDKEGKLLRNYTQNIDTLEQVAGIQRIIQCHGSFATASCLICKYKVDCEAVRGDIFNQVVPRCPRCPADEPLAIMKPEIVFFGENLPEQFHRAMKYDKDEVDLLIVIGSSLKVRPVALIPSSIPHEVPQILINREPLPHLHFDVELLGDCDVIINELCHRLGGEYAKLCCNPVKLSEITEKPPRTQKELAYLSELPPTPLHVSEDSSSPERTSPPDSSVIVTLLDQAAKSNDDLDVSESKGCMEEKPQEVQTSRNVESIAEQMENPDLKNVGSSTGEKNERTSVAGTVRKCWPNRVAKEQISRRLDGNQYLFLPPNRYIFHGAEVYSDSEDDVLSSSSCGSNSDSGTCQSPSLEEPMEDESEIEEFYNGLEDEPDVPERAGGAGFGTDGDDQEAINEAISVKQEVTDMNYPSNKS
Assay: Inhibition of human SIRT1
pIC50: −log10 of the molar value.
measurementLabel: pIC50

Challenge: Report pIC50 for `N#C/C(=C\c1ccc(-c2cc(Cl)ccc2Cl)o1)C(=O)Nc1cccc2ncccc12` please.
Response given: < 4.30

----------
Biological target: NAD-dependent protein deacetylase sirtuin-2 (Homo sapiens) (UniProt Q8IXJ6)
Sequence (Q8IXJ6 whole entry, the tested form may be a part): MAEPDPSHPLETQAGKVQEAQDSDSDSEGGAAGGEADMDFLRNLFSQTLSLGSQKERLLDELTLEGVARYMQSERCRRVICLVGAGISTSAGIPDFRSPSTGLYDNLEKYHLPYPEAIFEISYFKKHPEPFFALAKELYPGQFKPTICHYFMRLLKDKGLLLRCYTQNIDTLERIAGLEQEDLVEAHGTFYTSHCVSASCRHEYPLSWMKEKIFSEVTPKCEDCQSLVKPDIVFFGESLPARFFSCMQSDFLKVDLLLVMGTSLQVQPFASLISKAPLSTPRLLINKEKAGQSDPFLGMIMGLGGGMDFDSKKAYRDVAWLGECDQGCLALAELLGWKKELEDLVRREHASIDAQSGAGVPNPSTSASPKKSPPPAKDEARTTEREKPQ
Assay: Inhibition of recombinant human C-terminal His-tagged SIRT2 (50 to 389 end residues) expressed in Escherichia coli at 10 uM using p53 derived (379 to 382 residues) fluorogenic peptide substrate RHKK(Ac)-AMC preincubated for 10 mins followed by substrate addition in presence of NAD+ by fluorescence assay relative to control
measurementLabel: inhibition (%)
Numbers only, in %.

1. COc1ccc2ccccc2c1Cn1cnc2sc3c(c2c1=O)CCC(Nc1ccc(F)cc1)C3 (stereo not given) : 44
2. Cc1nn(C)c(C)c1CNC1CCc2c(sc3ncn(Cc4cccc5ccccc45)c(=O)c23)C1 (stereo not given) : 85
3. COc1cccc(Cn2cnc3sc4c(c3c2=O)CCC(NCc2ccccn2)C4)c1 (stereo not given) : 18
4. O=c1c2c3c(sc2ncn1Cc1ccccc1)CC(NCCc1cccnc1)CC3 (stereo not given) : 27
5. O=c1c2c3c(sc2ncn1Cc1ccc2ccccc2c1)CC(NC1CCCC1)CC3 (stereo not given) : 63
6. COc1ccc(CNC2CCc3c(sc4ncn(Cc5ccccc5)c(=O)c34)C2)cn1 (stereo not given) : 48

Provide each entry's inhibition from the list below.
1. COc1cccc(Cn2cnc3sc4c(c3c2=O)CCC(NCC2CCCCC2)C4)c1 (stereo not given)
2. O=c1c2c3c(sc2ncn1Cc1cccc2ccccc12)CC(NCc1ccncc1)CC3 (stereo not given)

Response given:
1: 62; 2: 92

Provide each entry's inhibition from the list below.
1. O=c1c2c3c(sc2ncn1Cc1cccc2ccccc12)CC(NCC1CCCO1)CC3 (stereo not given)
2. COc1cccc(CNC2CCc3c(sc4ncn(Cc5ccccc5OC)c(=O)c34)C2)c1 (stereo not given)
3. COc1ccc2ccccc2c1Cn1cnc2sc3c(c2c1=O)CCC(NCc1cncnc1)C3 (stereo not given)
4. O=c1c2c3c(sc2ncn1Cc1cccc(-c2ccccc2)c1)CC(NCCN1CCCC1)CC3 (stereo not given)
5. Cc1noc(C)c1CNC1CCc2c(sc3ncn(Cc4ccc5ccccc5c4)c(=O)c23)C1 (stereo not given)

Response given:
67
69
33
77
67

Provide each entry's inhibition from the list below.
1. COc1ccccc1Cn1cnc2sc3c(c2c1=O)CCC(NCc1cncnc1)C3 (stereo not given)
2. COc1ccc(Cn2cnc3sc4c(c3c2=O)CCC(Nc2ccc(C)cc2)C4)c2ccccc12 (stereo not given)
3. COc1cccc(Cn2cnc3sc4c(c3c2=O)CCC(NCc2ccncc2)C4)c1 (stereo not given)
4. COc1ccc2ccccc2c1Cn1cnc2sc3c(c2c1=O)CCC(NCCNC(C)=O)C3 (stereo not given)
5. COc1ccc2ccccc2c1Cn1cnc2sc3c(c2c1=O)CCC(NCc1ccc(Cl)cc1)C3 (stereo not given)
6. O=c1c2c3c(sc2ncn1Cc1ccc2ccccc2c1)CC(NCCN1CCCC1)CC3 (stereo not given)
7. COc1ccccc1NC1CCc2c(sc3ncn(Cc4c(OC)ccc5ccccc45)c(=O)c23)C1 (stereo not given)

Response given:
1: 45; 2: 35; 3: 59; 4: 44; 5: 40; 6: 52; 7: 29
